Molecular target: Concanavalin-A (Canavalia ensiformis)
Assay: ConA small-molecule binders, primary screen, artefact control for SMM control protein annotation, biochemical, small-molecule microarray, Alexa647 label, 635 nm (AID 1127);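 further: z combines 667 nm emission intensity with signal-to-noise across three replicate slides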
Settings: ConA-A647 binding fluorescence, higher = more signal
Answer each item with its documented composite z-score.

// known answers, use as guide
What measured composite z-score goes with CC(C)(C)OC(=O)CC[C@@]1(C(=O)O)N=C(c2ccc(OCCCO)cc2)O[C@@H]1c1ccccc1 ? 0.335

What measured composite z-score goes with COCCCNC(=O)[C@@]1(Sc2ccc(C)cc2)CC(=O)N(Cc2cc(C(F)(F)F)cc(C(F)(F)F)c2)[C@@H]1c1ccc(CO)cc1 ? 0.715

What measured composite z-score goes with COc1ccc([Si](C)(C)[C@@H]2[C@@H](CC(=O)N3CCC[C@H]3CO)O[C@]3(C(=O)N(Cc4ccc(N5C(=O)c6cccc7cccc5c67)cc4)c4ccccc43)[C@H]2C)cc1 ? 0.892

What measured composite z-score goes with Cc1ccc(S[C@]2(C(=O)NCCN3CCOCC3)CC(=O)N(Cc3ccccc3C(F)(F)F)[C@@H]2c2ccc(CO)cc2I)cc1 ? -0.278

What measured composite z-score goes with [N-]=[N+]=NCc1ccccc1C[C@]1(C(=O)NCC(O)CO)N=C(c2ccc(OCCCO)cc2)O[C@H]1c1ccccc1CN=[N+]=[N-] (stereo partly specified) ? 1.11

Let us move to another entry and its composite z-score.
What measured composite z-score goes with COCCOC(=O)N1C(=O)[C@@]2(c3ccccc31)[C@H](c1ccc(OCCO)cc1)N1[C@H](c3ccccc3)[C@H](c3ccccc3)OC(=O)[C@H]1[C@@H]2C(=O)Nc1nc2ccccc2s1 ? 1.17

Value source: PubChem BioAssay
